Cited source: patent US20250129086A1

Quick list: IC50 per entry.
- Test system: HCC827 (exon 19 deletion mutation)
- assay_overview: Cell antiproliferative assay (CTG, 72 h), HCC827
- Type: cell-based, human
- particulars: Homo sapiens, HCC827, 72 h, Table 2, HCC827 cells

# compound, IC50
measured = [
    ("COc1cc(N2CCN(CC3CCN(c4ccc5c(c4)C(=O)N(C4CCC(=O)NC4=O)C5=O)CC3)CC2)ccc1Nc1ncc(Cl)c(Nc2ccccc2C(C)=O)n1 (stereo not drawn)", "100 to 1000 nM"),
    ("CC(=O)c1ccccc1Nc1nc(Nc2ccc(N3CCN(C(=O)CN4CCC(c5ccc(NC6CCC(=O)NC6=O)cc5)CC4)CC3)cc2Cl)ncc1Cl (stereo not drawn)", "100 to 1000 nM"),
]

Now let's try a different one.
Exam item: // query IC50 value for entry COc1cc(N2CC[C@@H](NC(=O)CN3CCC(c4ccc(NC5CCC(=O)NC5=O)cc4)CC3)C2)ccc1Nc1ncc(Cl)c(Nc2ccccc2C(C)=O)n1 (stereo partly drawn)
Marked response: 100 to 1000 nM

###

- System: PC-9 (EGFR exon 19 deletion)
- assay_overview: Cell antiproliferative assay (CTG, 72 h), PC-9
- Assay type: cell-based, human
- particulars: Homo sapiens, PC-9, 72 h, Table 2, PC-9 cells
recorded_endpoint: IC50

# molecule, system_tested, result
records = [
    ("COc1cc(N2CCN(C(=O)CN3CCC(c4ccc(NC5CCC(=O)NC5=O)cc4)CC3)CC2)ccc1Nc1ncc(Cl)c(Nc2ccccc2C(C)=O)n1 (stereo not drawn)", "PC-9 (EGFR exon 19 deletion)", "100 to 1000 nM"),
    ("COc1cc(N2CCC(N3CCN(C(=O)CN4CCC(c5ccc(NC6CCC(=O)NC6=O)cc5)CC4)CC3)CC2)ccc1Nc1ncc(Cl)c(Nc2ccccc2N(C)S(C)(=O)=O)n1 (stereo not drawn)", "PC-9 (EGFR exon 19 deletion)", "100 to 1000 nM"),
    ("COc1cc(N2CCN(C(=O)CC3(F)CCN(c4ccc(NC5CCC(=O)NC5=O)cc4)CC3)CC2)ccc1Nc1ncc(Cl)c(Nc2ccccc2C(C)=O)n1 (stereo not drawn)", "PC-9 (EGFR exon 19 deletion)", "10 to 100 nM"),
    ("CNC(=O)c1ccccc1Nc1nc(Nc2cc(C)c(N3CCN(C(=O)CN4CCC(c5ccc(NC6CCC(=O)NC6=O)cc5)CC4)C(C)C3)cc2OC)ncc1Cl (stereo not drawn)", "PC-9 (EGFR exon 19 deletion)", "10 to 100 nM"),
    ("COc1cc(N2CCN(C(=O)CN3CCC(c4ccc(NC5CCC(=O)NC5=O)cc4)CC3)CC2)c(C)cc1Nc1ncc(C(F)(F)F)c(Nc2ccccc2C(C)=O)n1 (stereo not drawn)", "PC-9 (EGFR exon 19 deletion)", "100 to 1000 nM"),
    ("COc1cc(N2CCN(C(=O)CN3CCC(c4ccc(Cn5ccc(=O)[nH]c5=O)cc4)CC3)CC2)ccc1Nc1ncc(Cl)c(Nc2ccccc2C(C)=O)n1", "PC-9 (EGFR exon 19 deletion)", "100 to 1000 nM"),
]

Exam item: Fill in the blank: the reported IC50 of COc1cc(N2CC[C@@H](NC(=O)CN3CCC(c4ccc(NC5CCC(=O)NC5=O)cc4)CC3)C2)ccc1Nc1ncc(Cl)c(Nc2ccccc2C(C)=O)n1 (stereo partly drawn) is ____.
Marked response: ≥ 1000 nM

Exam item: Given COc1cc(N2CCN(C(=O)CN3CCC(c4ccc(NC5CCC(=O)NC5=O)cc4)CC3)CC2)ccc1Nc1ncc(Cl)c(Nc2ccccc2C(=O)NC(C)C)n1 (stereo not drawn) , state its recorded IC50.
Marked response: 100 to 1000 nM

Exam item: Need IC50 of COc1cc(N2CCN(C(=O)CN3CCC(c4ccc(NC5CCC(=O)NC5=O)cc4)CC3)CC2)ccc1Nc1ncc(Br)c(Nc2ccccc2C(=O)NC2CCCC2)n1 (stereo not drawn) , thanks.
Marked response: 100 to 1000 nM

###

- System: H1975 (EGFR L858R/T790M double mutation)
- assay_overview: Cell antiproliferative assay (CTG, 72 h), H1975
- Format: cell-based, human
- particulars: Homo sapiens, NCI-H1975, 72 h, Table 2, H1975 cells
- Method: Test Example 1 Cell Antiproliferative Assay H1975: with EGFR: L858R/T790M double mutation; PC-9 with EGFR exon 19 deletion, HCC827 with exon 19 deletion mutation. CellCounting-Lite2.0, Trypsin EDTA, 37° C. […] • (A)96-well plates were incubated in an incubator for 72 h. The effect of the compounds was observed under an inverted microscope. • (B)25 μl of CTG solution was added to each well, the plate was put on shaker for 10 minutes and the […] of each well was read. […]
recorded_endpoint: IC50

# annotated cases, reported IC50 shown
# molecule, recorded_endpoint, result
records = [
    ("CCc1cc(Nc2ncc(Cl)c(Nc3ccccc3C(=O)NC)n2)c(OC)cc1N1CCN(C(=O)CN2CCC(c3ccc(NC4CCC(=O)NC4=O)cc3)CC2)CC1 (stereo not drawn)", "IC50", "10 to 100 nM"),
    ("COc1cc(N2CCC(N(C)C(=O)CN3CCC(c4ccc(NC5CCC(=O)NC5=O)cc4)CC3)CC2)ccc1Nc1ncc(C(F)(F)F)c(Nc2ccccc2C(C)=O)n1 (stereo not drawn)", "IC50", "10 to 100 nM"),
    ("CNC(=O)c1ccccc1Nc1nc(Nc2cc(CC(F)(F)F)c(N3CCN(C(=O)CN4CCC(c5ccc(NC6CCC(=O)NC6=O)cc5)CC4)CC3)cc2OC)ncc1Br (stereo not drawn)", "IC50", "10 to 100 nM"),
    ("COC(=O)c1ccccc1Nc1nc(Nc2ccc(N3CCN(C(=O)CN4CCC(c5ccc(NC6CCC(=O)NC6=O)cc5)CC4)CC3)cc2OC)ncc1Cl (stereo not drawn)", "IC50", "100 to 1000 nM"),
    ("COc1cc(N2CCN(C(=O)CN3CCC(c4ccc(NC5CCC(=O)NC5=O)cc4)CC3)CC2)ccc1Nc1ncc(Cl)c(Nc2cc(F)ccc2F)n1 (stereo not drawn)", "IC50", "100 to 1000 nM"),
]

Next up:
Exam item: Endpoint output: IC50 of COc1cc(N2CC[C@@H](N(C)C(=O)CN3CCC(c4ccc(NC5CCC(=O)NC5=O)cc4)CC3)C2)ccc1Nc1ncc(Cl)c(Nc2ccccc2C(C)=O)n1 (stereo partly drawn) . Value?
Marked response: 10 to 100 nM

###

- system_tested: EGFR (Homo sapiens, UniProt P00533, DEL746-750)
- Construct: host or cells: HCC827
- Sequence (P00533 with tags, fused parts or gaps DEL746-750): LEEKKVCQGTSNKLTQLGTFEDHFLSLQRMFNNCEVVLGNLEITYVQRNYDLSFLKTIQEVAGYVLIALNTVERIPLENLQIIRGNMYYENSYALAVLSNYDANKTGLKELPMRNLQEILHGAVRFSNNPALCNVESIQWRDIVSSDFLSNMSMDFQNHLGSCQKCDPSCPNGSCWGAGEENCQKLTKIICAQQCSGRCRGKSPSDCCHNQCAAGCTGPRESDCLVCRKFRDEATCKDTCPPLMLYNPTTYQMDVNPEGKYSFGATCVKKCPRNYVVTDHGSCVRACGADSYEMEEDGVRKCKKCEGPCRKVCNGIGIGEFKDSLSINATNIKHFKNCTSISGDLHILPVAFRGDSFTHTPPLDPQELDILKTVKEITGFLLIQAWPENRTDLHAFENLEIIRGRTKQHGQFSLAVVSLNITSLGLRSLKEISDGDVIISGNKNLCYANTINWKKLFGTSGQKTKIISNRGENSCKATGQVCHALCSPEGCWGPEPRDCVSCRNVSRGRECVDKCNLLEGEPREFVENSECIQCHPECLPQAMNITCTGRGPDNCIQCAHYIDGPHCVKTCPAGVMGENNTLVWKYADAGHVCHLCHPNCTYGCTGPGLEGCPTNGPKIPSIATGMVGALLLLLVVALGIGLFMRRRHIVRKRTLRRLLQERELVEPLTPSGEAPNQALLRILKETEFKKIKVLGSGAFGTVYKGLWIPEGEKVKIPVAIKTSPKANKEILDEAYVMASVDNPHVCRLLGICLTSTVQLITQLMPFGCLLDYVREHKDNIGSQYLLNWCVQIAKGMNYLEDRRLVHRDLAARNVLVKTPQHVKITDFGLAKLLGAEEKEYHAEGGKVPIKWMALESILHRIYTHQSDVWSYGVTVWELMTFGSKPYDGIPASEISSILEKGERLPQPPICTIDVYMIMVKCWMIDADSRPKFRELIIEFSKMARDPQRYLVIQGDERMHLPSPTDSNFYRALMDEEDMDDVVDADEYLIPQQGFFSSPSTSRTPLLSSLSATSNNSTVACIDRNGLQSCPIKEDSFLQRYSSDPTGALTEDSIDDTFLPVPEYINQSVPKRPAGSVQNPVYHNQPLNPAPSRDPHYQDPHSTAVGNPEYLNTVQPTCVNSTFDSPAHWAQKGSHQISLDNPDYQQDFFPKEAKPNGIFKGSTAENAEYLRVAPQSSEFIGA
- assay_overview: EGFR PROTAC In Cell Western assay in HCC827
- Format: cell-based
- particulars: HCC827, Table 4; HCC827, EGFR degradation, 16 hours of incubation
Collected Dmax values appear next to each entry.

Exam item: Which Dmax reading was recorded for the compound COc1cc(N2CCN(C(=O)CN3CCC(c4ccc(NC5CCC(=O)NC5=O)cc4)CC3)CC2)ccc1Nc1ncc(Cl)c(Nc2ccccc2C(=O)N(C)C)n1 (stereo not drawn) ?
Marked response: 50 to 70%

Exam item: Which Dmax is reported for this compound? COc1cc(N2CCC(NC(=O)CN3CCC(c4ccc(NC5CCC(=O)NC5=O)cc4)CC3)CC2)ccc1Nc1ncc(Cl)c(Nc2ccccc2C(C)=O)n1 (stereo not drawn)
Marked response: < 50%

Exam item: Would you kindly share the measured Dmax for CC(=O)c1ccccc1Nc1nc(Nc2ccc(N3CCN(C(=O)CN4CCC(c5ccc(NC6CCC(=O)NC6=O)cc5)CC4)CC3)cc2Cl)ncc1Cl (stereo not drawn) ?
Marked response: < 50%

Exam item: # input compound: COc1cc(N2CCC(N(C)C(=O)C3CCN(CC4CCN(c5ccc6c(c5)C(=O)N(C5CCC(=O)NC5=O)C6=O)CC4)CC3)CC2)ccc1Nc1ncc(Cl)c(Nc2ccccc2C(C)=O)n1 (stereo not drawn) ; wanted: its Dmax
Marked response: < 50%

Exam item: // query Dmax value for entry COc1nc(N2CCN(C(=O)CN3CCC(c4ccc(NC5CCC(=O)NC5=O)cc4)CC3)CC2)ccc1Nc1ncc(Cl)c(Nc2ccccc2P(C)(C)=O)n1 (stereo not drawn)
Marked response: 50 to 70%

Exam item: So what does the record say about Dmax for CNC(=O)c1ccccc1Nc1nc(Nc2ccc(N3CCN(C(=O)CN4CCC(c5ccc(NC6CCC(=O)NC6=O)cc5)CC4)CC3)cc2OC)ncc1Br (stereo not drawn) ?
Marked response: 70 to 100%

###

- system_tested: EGFR (Homo sapiens, UniProt P00533, DEL746-750)
- Construct: host or cells: HCC827
- assay_overview: EGFR PROTAC In Cell Western assay in HCC827
- Format: cell-based
- particulars: Table 4; HCC827, EGFR degradation, 16 hours of incubation
- Procedure: Test Example 2 EGFR PROTAC in Cell Western Assay HCC827 cell culture medium was purchased from Corning. […] 1) HCC827 cells were cell counted and cells were inoculated into 96-well black cell culture imaging microtiter plates at a density of 40,000 cells per well, with 100 μl per well. […] After pipetting the PBS thoroughly, the plate was inverted and imaged on a Burroughs imager. […] The DC50 and Dmax of the degraded EGFR proteins were calculated by fitting curves using the Prism software, 3-parameter method.
Listed next: entries and their corresponding DC50.

# compound, DC50
records = [
    ("COc1cc(N2CCN(C(=O)CN3CCC(c4ccc(NC5CCC(=O)NC5=O)cc4)CC3)CC2)ccc1Nc1ncc(Cl)c(Nc2ccccc2N(C)S(C)(=O)=O)n1 (centres unmarked)", "10 to 100 nM"),
    ("COc1cc(N2CCN(C(=O)CN3CCC(c4ccc(NC5CCC(=O)NC5=O)cc4)CC3)CC2)ccc1Nc1ncc(Cl)c(Nc2ccccc2C(=O)N(C)C)n1 (centres unmarked)", "≤ 10 nM"),
    ("CNC(=O)c1ccccc1Nc1nc(Nc2ccc(N3CCN(C(=O)CN4CCC(c5ccc(NC6CCC(=O)NC6=O)cc5)CC4)CC3)cc2OC)ncc1Br (centres unmarked)", "≤ 10 nM"),
    ("O=C1CCC(Nc2ccc(C3CCN(CC(=O)N4CCN(c5ccc(-c6cc(F)c7c(c6)C(=O)N(C(C(=O)Nc6nccs6)c6ncn8c6CCC8)C7)cc5)CC4)CC3)cc2)C(=O)N1 (centres unmarked) [Comparative Compound 1, reference compound]", "≥ 1000 nM"),
]

Exam item: Query the reported DC50 for EGFR (Homo sapiens, UniProt P00533, DEL746-750); item: COc1cc(N2CCC(N3CCN(C(=O)CN4CCC(c5ccc(NC6CCC(=O)NC6=O)cc5)CC4)CC3)CC2)ccc1Nc1ncc(Cl)c(Nc2ccccc2N(C)S(C)(=O)=O)n1 (centres unmarked)
Marked response: 10 to 100 nM

Exam item: API: value(readout=DC50, system=EGFR (Homo sapiens, UniProt P00533, DEL746-750)) for record COc1cc(N2CCN(C(=O)CN3CCC(c4ccc(NC5CCC(=O)NC5=O)cc4)CC3)CC2)c(-c2cnn(C)c2)cc1Nc1ncc(Cl)c(Nc2ccccc2C(C)=O)n1 (centres unmarked)
Marked response: 10 to 100 nM

Exam item: DC50 of COc1cc(N2CCN(C(=O)CN3CCC(c4ccc(NC5CCC(=O)NC5=O)cc4)CC3)CC2)c(C)cc1Nc1ncc(Cl)c(Nc2ccccc2C(C)=O)n1 (centres unmarked) on EGFR (Homo sapiens, UniProt P00533, DEL746-750)?
Marked response: 10 to 100 nM

Exam item: Give recorded DC50 with EGFR (Homo sapiens, UniProt P00533, DEL746-750) for the following compound: COc1cc(N2CCC(N3CCN(C(=O)CCCCN4CCN(c5ccc6c(c5)C(=O)N(C5CCC(=O)NC5=O)C6=O)CC4)CC3)CC2)ccc1Nc1ncc(Cl)c(Nc2ccccc2C(C)=O)n1 (centres unmarked)
Marked response: 100 to 1000 nM
